Reference source for all entries: the supplement of paper PMC7411054

# Tested on: WPMY1-CANX-COX4
# Assay name: phenotypically active (imaging signature differs from DMSO and reproducible) at any of 0.3-9 uM (binary (1 = active, 0 = inactive)); higher = active
# Measurement setup: treatment time: 24 h
Counter-ions that a name gives are not always drawn.
Reported phenotypically active values follow for various compounds

{"Compound": "CNC(=O)c1cc(Oc2ccc(NC(=O)Nc3ccc(Cl)c(C(F)(F)F)c3)cc2)ccn1", "phenotypically active": 1}
{"Compound": "Cn1cc(-c2cnc3ccc4ccc(CS(=O)(=O)NCc5ccccn5)cc4c(=O)c3c2)cn1", "phenotypically active": 1}
{"Compound": "CCOc1ccc2nc(S(N)(=O)=O)sc2c1 [ethoxzolamide]", "phenotypically active": 0}
{"Compound": "NCCC(=O)NCCc1c[nH]cn1", "phenotypically active": 0}
{"Compound": "CC(C)n1c(/C=C/[C@@H](O)C[C@@H](O)CC(=O)O)c(-c2ccc(F)cc2)c2ccccc21.CC(C)n1c(/C=C/[C@H](O)C[C@H](O)CC(=O)O)c(-c2ccc(F)cc2)c2ccccc21 [Fluvastatin sodium]", "phenotypically active": 1}
{"Compound": "O=C1N(c2ccccc2)c2ccccc2C1(Cc1ccncc1)Cc1ccncc1", "phenotypically active": 0}
{"Compound": "O=C(CCCCCCC(=O)NO)NO", "phenotypically active": 0}
{"Compound": "CN(C)CCc1c[nH]c2ccc(C[C@H]3COC(=O)N3)cc12", "phenotypically active": 0}
{"Compound": "COc1c(Nc2cc(C)[nH]n2)nc(Sc2ccc(S(=O)(=O)Cc3cccc([N+](=O)[O-])c3F)cc2F)nc1N1CCOCC1", "phenotypically active": 1}
{"Compound": "NC(=O)c1cccc(N)c1 [3-Aminobenzamide]", "phenotypically active": 0}
{"Compound": "CCCC1(CCC)CCC2(CCN(CCCN(CC)CC)C2)CC1 [Atiprimod dihydrochloride]", "phenotypically active": 1}
{"Compound": "O=C1NCCCC1C(=O)NCCc1c[nH]c2ccc(O)cc12 (centres undefined)", "phenotypically active": 0}
{"Compound": "O=C(O)CCCC[C@@H]1SC[C@@H]2NC(=O)N[C@@H]21", "phenotypically active": 0}
{"Compound": "NC1=NCC2c3ccccc3Cc3ccccc3N12 (centres undefined) [epinastine]", "phenotypically active": 0}
{"Compound": "O=C1c2ccccc2C(Cc2ccncc2)(Cc2ccncc2)c2ccccc21", "phenotypically active": 0}
{"Compound": "COc1c(O[C@@H]2O[C@H](CO)[C@@H](O)[C@H](O)[C@H]2O)cc2c(c1OC)-c1ccc(SC)c(=O)cc1[C@@H](NC(C)=O)CC2 [Thiocolchicoside]", "phenotypically active": 0}
{"Compound": "C=CC(=O)N1CCC[C@@H](n2nc(-c3cccc(C(=O)Nc4ccc(C(C)C)c(C)c4)c3)c3c(N)ncnc32)C1", "phenotypically active": 1}
{"Compound": "CN1CCN2c3ncccc3Cc3ccccc3C2C1 (centres undefined)", "phenotypically active": 0}
{"Compound": "Cc1ccc(C(=O)Oc2ccc(C(O)CNC(C)(C)C)cc2OC(=O)c2ccc(C)cc2)cc1 (centres undefined)", "phenotypically active": 1}
{"Compound": "C[C@H]1[C@H](C)CC[C@]2(C(=O)O[C@@H]3O[C@H](CO[C@@H]4O[C@H](CO)[C@@H](O[C@@H]5O[C@@H](C)[C@H](O)[C@@H](O)[C@H]5O)[C@H](O)[C@H]4O)[C@@H](O)[C@H](O)[C@H]3O)CC[C@]3(C)C(=CC[C@@H]4[C@@]5(C)C[C@@H](O)[C@H](O)[C@@](C)(CO)[C@@H]5CC[C@]43C)[C@H]12 [Asiaticoside]", "phenotypically active": 0}
{"Compound": "CN(C)c1nc(N(C)C)nc(N(C)C)n1", "phenotypically active": 0}
{"Compound": "Cc1ccccc1N1C(=O)c2cc(S(N)(=O)=O)c(Cl)cc2NC1C (centres undefined)", "phenotypically active": 0}
{"Compound": "CCCCCCCN(CC)CCCC(O)c1ccc(NS(C)(=O)=O)cc1 (centres undefined) [ibutilide]", "phenotypically active": 0}
{"Compound": "CO[C@@H]1[C@H](N(C)C(=O)c2ccccc2)C[C@H]2O[C@]1(C)n1c3ccccc3c3c4c(c5c6ccccc6n2c5c31)C(=O)NC4", "phenotypically active": 1}
{"Compound": "CCOC(=O)Nc1ccc2c(c1)N(C(=O)CCN1CCOCC1)c1ccccc1S2", "phenotypically active": 0}
{"Compound": "COc1cc(N2CCN(C)CC2)ccc1Nc1nccc(-c2cn(C)c3cnccc23)n1", "phenotypically active": 1}
{"Compound": "COc1cc2ncnc(Nc3ccc(O)c(Br)c3)c2cc1OC", "phenotypically active": 1}
{"Compound": "COc1cc(/C=C/c2ccc(OC)cc2OC)cc(OC)c1", "phenotypically active": 1}
{"Compound": "COc1ccc(CCc2nc3c(C)c(-c4c(C)noc4C)c(C)cc3n2CCN2CCOCC2)cc1", "phenotypically active": 0}
{"Compound": "O=S(=O)(c1cccc2cnccc12)N1CCCNCC1", "phenotypically active": 1}
{"Compound": "CC[C@H](C)C(=O)O[C@H]1C[C@H](O)C=C2C=C[C@H](C)[C@H](CC[C@@H](O)C[C@@H](O)CC(=O)O)[C@H]21", "phenotypically active": 0}
{"Compound": "c1ccc(CN(CC2=NCCN2)c2ccccc2)cc1", "phenotypically active": 0}
{"Compound": "CCCCC(=O)N(Cc1ccc(-c2ccccc2-c2nnn[nH]2)cc1)[C@H](C(=O)O)C(C)C", "phenotypically active": 0}
{"Compound": "CCCNCC(O)COc1ccccc1C(=O)CCc1ccccc1 (centres undefined)", "phenotypically active": 1}
